- Test Target: T1, cynomolgus IL12Rβ1 (cynomolgus, UniProt A0A2K5VWV1 24-662)
- T1 construct: whole, on cells; also called cyno IL12Rβ1; Cyno IL-12Rβ1
- Run Description: FACS, 1 µg/ml IgG4, BaF3 cells expressing cyno IL12Rβ1
Measured Attribute: MFI (mean fluorescent intensity)
I only need the number, thanks.

| Binder | Result |
| --- | --- |
| MOR05278 IgG4 (antibody, V domains shown, IgG4) VH: QVQLVESGGGLVQPGGSLRLSCAASGFTFSSYGMSWVRQAPGKGLEWVSYIEPKLFWYATFYAASVKGRFTISRDNSKNTLYLQMNSLRAEDTAVYYCARNDFMEPAYFALWGQGTLVTVSS VL: DIELTQPPSVSVAPGQTARISCSGDNLGSYYAYWYQQKPGQAPVGVIYDDSERPSGIPERFSGSNSGNTATLTISGTQAEDEADYYCSSYTYSKNNVFGGGTKLTVLG | 350 |
| MOR05286 IgG4 (antibody, V domains shown, IgG4; also called MOR5286) VH: QVQLKESGPALVKPTQTLTLTCTFSGFSLSTSGMGVSWIRQPPGKALEWLALIDWTDDKYYSTSLKTRLTISKDTSKNQVVLTMTNMDPVDTATYYCARTVGKGLYRVDNWGQGTLVTVSS VL: DIELTQPPSVSVAPGQTARISCSGDNLGSKFAYWYQQKPGQAPVLVIYDDSKRPSGIPERFSGSNSGNTATLTISGTQAEDEADYYCQSWDSSSGNDVFGGGTKLTVLG | 271 |
| MOR05281 IgG4 (antibody, V domains shown, IgG4) VH: QVQLKESGPALVKPTQTLTLTCTFSGFSLSTRGVGVSWIRQPPGKALEWLALIYWDEDKYYSTSLKTRLTISKDTSKNQVVLTMTNMDPVDTATYYCARYQSGYYYNNDGWGVDIWGQGTLVTVSS VL: DIQMTQSPSSLSASVGDRVTITCRASQSISSWLNWYQQKPGKAPKLLIYAASSLQSGVPSRFSGSGSGTDFTLTISSLQPEDFATYYCQQYYAFPHTFGQGTKVEIKR | 144 |

*Q* Provide measured MFI (mean fluorescent intensity) value, entry: MOR05271 IgG4 (antibody, V domains shown, IgG4) VH: QVQLKESGPALVKPTQTLTLTCTFSGFSLSTSTMGVSWIRQPPGKALEWLAWIYWDDDKDYSTSLKSRLTISKDTSKNQVVLTMTNMDPVDTATYYCARANPDLGYFDYWGQGTLVTVSS VL: DIALTQPASVSGSPGQSITISCTGTSSDLGESNYVSWYQQHPGKAPKVMIYDVNKRPSGVSNRFSGSKSGNTASLTISGLQAEDEADYYCGSYDEEDNVFGGGTKLTVLG
*A* 134

All figures here come from patent US20120034231A1.
